EXPERIMENTAL_SYSTEM: T1, human eIF5B_(1076–1220), comprising domain 4 (GH-eIF5B-D4) (human, UniProt O60841 1076-1220)
T1 sequence (looked up): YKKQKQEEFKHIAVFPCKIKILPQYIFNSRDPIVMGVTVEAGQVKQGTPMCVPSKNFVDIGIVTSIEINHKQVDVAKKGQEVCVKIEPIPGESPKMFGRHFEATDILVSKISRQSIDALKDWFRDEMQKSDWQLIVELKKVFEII
ASSAY_REMARKS: fluorescence polarisation
Where no end group is shown, it is not given here.
MEASURE_NAME: pKd
One number for each entry, as −log10 of the molar value.

Prompt: Note pKd for the binder shown: DIDIDAI (peptide, UniProt P55010 425-431, looked up, also: fluorescein label, position not given here) [fluorescein-labeled 7-residue eIF5 C-terminal peptide (Fl-eIF5-CT7)]
Response: 5.85
